- Tested on: EKVX NSCLC
- protocol: NCI-60 one-dose screen, 48 h (100 = growth as untreated, 0 = no growth, -100 = all killed)
- condition.label: 10 µM unless noted
This is part of a sample that, as a whole, favours compounds with a hit. Of some 83,000 tested, about 20% had one in any assay. Calls of active or inactive are those of the source. Rule for the calls: active = growth percent below 10; inactive = the rest.
measure: growth

- COc1cc(F)c(/C=C/c2cc(/C=C/c3cc(OC)c(OC)cc3F)n(-c3cc(F)cc(F)c3)n2)cc1OC: 57.7% (inactive)
- C[C@@H]1CC[C@@H]2[C@@H]1[C@H](OC(=O)/C=C/c1ccccc1)[C@]1(c3ccccc3)C[C@@H](NC(=O)CO)[C@@]2(C)O1: 90.2% (inactive)
- C#CCOc1cccc(Nc2ncc3ncn(C4CCN(C(=O)CCl)C4)c3n2)c1 (centres undefined): 91.3% [6.25 µM] (inactive)
- COc1cc(Cl)cc(-c2nn(C(=O)NS(=O)(=O)c3ccc(Cl)cc3)cc2-c2ccncc2)c1: 59.5% (inactive)
- N#C/C(=C\c1ccc(Br)cc1)n1nnc2c(F)cccc21: 30.6% (inactive)
- Brc1ccc(/C=C(/C2=NCCN2)n2ccc3ccccc32)cc1: 79% (inactive)
- CC1(C)C(N)=Nc2cc(OCCCN3Cc4ccc(OCCc5cn(CC(=O)N6CCC(CCN7CCCC7)CC6)nn5)cc4C3)c(OCC3CC3)cc21: 101% (inactive)
- CCCCSc1ccc2nc(-c3ccc(OCCCN=C(N)N)cc3)cn2c1: 95.6% (inactive)
- O=[N+]([O-])c1cc(C(F)(F)F)ccc1Sc1ccc(C(F)(F)F)cc1[N+](=O)[O-]: 87% (inactive)

###

// values below are reported growth
- Test system: MDA-MB-231 breast
- protocol: NCI-60 one-dose screen, 48 h (100 = growth as untreated, 0 = no growth, -100 = all killed)
- condition.label: 10 µM unless noted
This is part of a sample that, as a whole, favours compounds with a hit. Of some 83,000 tested, about 20% had one in any assay.
measure: growth (%)

• CCCn1nc(C(=O)N2CCCCC2)c2c1CCC(N1CCC(c3ccncc3)CC1)C2 (centres undefined) = 118
• CCN1CCN(CC(=O)Nc2nc3ccc(NCc4ccc(C)cc4)cc3s2)CC1 = 59.1
• C[C@]12CCc3c(ccc4cc(O)ccc34)[C@@H]1C[C@H](O)[C@@H]2O = 79.9
• O=C(NCc1cccnc1)/C(=C\c1ccc(Br)cc1)S(=O)(=O)c1ccccc1 = -65.7
• Nc1n[nH]c2cccc(C#Cc3cccc(C(=O)Nc4ccc(CN5CCOCC5)c(C(F)(F)F)c4)c3)c12 = 28.8
• COc1ccc(Oc2nc(Nc3ccc(N4CCOCC4)cc3)ncc2NC(=O)c2cccc(C(F)(F)F)c2)cc1 = 69.1
• CCn1cc(C(=O)NN=C2CCCC2)c(=O)c2ccc(C)nc21 = 93.3
• Cc1ccc(NC(=O)N/C(N)=N/c2nc(=O)c3ccccc3s2)cc1 = 86
• O=C(Cn1cc(CN2CCN(c3ccnc4cc(Cl)ccc34)CC2)nn1)Nc1cccc([N+](=O)[O-])c1 = 64.8

###

- Test system: SK-OV-3 ovarian
- protocol: NCI-60 one-dose screen, 48 h (100 = growth as untreated, 0 = no growth, -100 = all killed)
- condition.label: 10 µM unless noted
- Description: Growth inhibition of the SK-OV-3 human tumor cell line is measured as a screen for anti-cancer activity. Cells are grown in 96 well plates and exposed to the test compound for 48 hours. Compounds are tested at a single concentration, which is 10^-5 M for most compounds. The reported endpoint is percent growth (GI% or GIPRCNT), where numbers from 0 - 100% represent growth inhibition, and numbers from -100% - 0 represent cell death. For example, a value of 40 represents 60% growth inhibition. […]
Compounds without any hit were thinned out: in the full panel of roughly 83,000, 20% have a hit. The source made the active and inactive calls. Rule for the calls: active = growth percent below 10; inactive = the rest.
measure: growth

• O=C1c2cc3c(cc2-c2c1c1ccc(Cl)cc1c(=O)n2CCCn1ccnc1)OCO3 = 8.75% (active)
• CCCc1cc(C(N)=S)ccn1 = 100% (inactive)
• CN(C)CCN1C(=O)c2c(c3c4ccccc4n4c3c3c2c2ccccc2n3C2CC(O)C(O)C4(C)O2)C1=O (stereo not given) = 25.3% (inactive)
• CCc1c2c(nc3ccc(OCc4ccc(B5OC(C)(C)C(C)(C)O5)cc4)cc13)-c1cc3c(c(=O)n1C2)COC(=O)[C@]3(O)CC = -1.58% (active)
• OCc1cc(CN2CCCCC2)c(O)c2ncccc12 = 49.4% (inactive)
